System: LXRa homodimer (NR concentration 270 nM)
Assay: PBM binding z-score (relative to random genomic background probes); higher = stronger binding; sequences stand for … in GC…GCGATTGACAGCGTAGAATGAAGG
Can you tell me PBM binding z-score for the items I'm about to list?

Recorded PBM binding z-score of `CCGACTGGGGGAAAGGTTACCATACTCAGTACGA` , please.
0.42

Then what about the sequence `TAGCCTAGGTCGTGCGGGCCAGTATAGTGTCGGC` ?
-0.956

Then what about the sequence `GCTTACGGGTCAGAGGTTATAGCATGAATAGAAT` ?
0.404

Then what about the sequence `ACTAGAAGGCCAAGTTTGGGTCACTCAAACAAAG` ?
-0.0475

Then what about the sequence `AGAACGAGGGCACGCTGAGTTGGTAGCAGAGTAG` ?
-0.489

Then what about the sequence `ATCTCTAGGTAACCAAGTTCAGTCAATGCCGAAC` ?
1.15

Then what about the sequence `ACTATTAGTTGAGACAAGGGCAACCGATAGGTTG` ?
-0.143

Then what about the sequence `CGAACTAGGTCTGAACAGGACAGTGAAGGATGAT` ?
-0.618

Then what about the sequence `CGAACTAGGTCATCCAGAACAGTGAATACATTGA` ?
0.739

Then what about the sequence `TCTGCTAGGTCAACGATGGTAAGCTAATCTGCTA` ?
-0.518

Then what about the sequence `CCTTACGGGTCACGAGGTTATGGCACGACGAGCG` ?
0.195

Then what about the sequence `CGAACTAGGTCATCCAGGACAATGAATACATTGA` ?
0.73

Then what about the sequence `CATACAGGGTCAGCTAGGCCAGAGAAGGGACGGC` ?
-0.0685

Then what about the sequence `ATATGTTGGTTATCGGGTCATTCAGTTTGCGCAT` ?
1.49

Then what about the sequence `TAGCCTAGGTCATTCCGGGGCCAGTATAGAAAGC` ?
0.811

Then what about the sequence `TCTGCTAGGTCAGTTGGTCAGTTAACGAGCTGCC` ?
-0.414

Then what about the sequence `TCTGCTAGGTCAGTTGCTCAGCTAACGAGCTGCC` ?
-0.836

Then what about the sequence `ATATGTAGGTTACATCCCGGTCATTCAGGCTATG` ?
3.88

Then what about the sequence `CGAACGAGGGCATGGGTTGATAGCAAATGCCGAT` ?
-0.228

Then what about the sequence `GTACTAAGGTGAATAGGTCGTTGATGAGTAGGCG` ?
0.221

Then what about the sequence `TCAGACAGGTGGAGGTAACTCAGGTACGCAGTCG` ?
-0.167

Then what about the sequence `TCTTGTAGATCAATAGTGGTTAAGAAAGTGCGCT` ?
-0.000472

Then what about the sequence `GCTAGCAGGCCATTTGGGACACTCAATGACGGGC` ?
-0.545

Then what about the sequence `TTACCAAGGTGAGCTGAGGTGGTTGATCCAACTC` ?
-0.878

Then what about the sequence `TTTCCAAGGTGAGCTGAGGTCGTTGATCCAACTC` ?
-0.117

Then what about the sequence `ATACCAAGGTGAGCGTGAGGTCGTTGATACTAAC` ?
0.0516

Then what about the sequence `CGAACTAGGTCCGAACAGGACAGTGAAGGATGAT` ?
-0.619

Then what about the sequence `CCTCGGAGGACAACAGTAGGTCAGAGCTGCCAGA` ?
1.04

Then what about the sequence `TAGCCTAGGTCATGCGGGGCAGTATAGTGTCGGC` ?
0.431

Then what about the sequence `TCTATTAGTTGATTAGGGCATCCGAAACAGCGGA` ?
0.192

Then what about the sequence `AGTCAAAGTTCATCTAGGTAACCTAAGATATGCT` ?
6.02

Then what about the sequence `TTGCCAAGGTGAAGGTCGTTGATCCCTCTGTAGA` ?
-0.705

Then what about the sequence `ATATGTAGGTTACATCCGGGTCGTTCAGGCTATG` ?
0.557

Then what about the sequence `GCGACTGGGGCATCAGCAGTTTACCATAACTTAA` ?
-0.256

Then what about the sequence `CCTAGCAGGCCAGGGTCACTGAAGCATTTCGCTT` ?
-0.679

Then what about the sequence `ACTATTTGTTGACTTAGGGCAACCGATACGACGC` ?
0.404

Then what about the sequence `CCAGACAGGTGAAAGGTACCTCAGTCTGGTACGC` ?
-0.338

Then what about the sequence `TCTAGCAGGCCAGAGGGTCACTCAAGAGGTACGG` ?
-0.601

Then what about the sequence `CCTACAGGGCCACGAAAGGTCATTGATTCAGTGA` ?
4.74

Then what about the sequence `ATCGAAAGGTAGAGGTGAGTATAGAGAAAGGGAA` ?
0.209

Then what about the sequence `GCTCGGAGGACAAGGTCAGAGATTTGTCCGTAGA` ?
-0.347

Then what about the sequence `ATTCCAAGGTGATCGTGAGGTCGTTGATACTAAC` ?
0.734

Then what about the sequence `TCATATAGGTAAAGGTGAAAGGCGAACGATATGA` ?
-0.0796

Then what about the sequence `CGAACTAGGTCAGAACAGGACAGAGAAGGATGAT` ?
0.159

Then what about the sequence `GCGAGCAGGCCATTTGGGTCACTCAATGACGGGC` ?
-0.692

Then what about the sequence `CAAACTAGGTCACCGGAAGTTCAAAGTCCGCATG` ?
4.93

Then what about the sequence `ACTAGTTGGTCAGCTGAGGTCACATACAATTCGG` ?
2.7

Then what about the sequence `CCTGCTAGGTCAACGGTCAGCTAAAGCAGCTCGC` ?
0.58

Then what about the sequence `AGAATGAGGTTACCAAACATCAGGGAAACGCTTG` ?
-0.389

Then what about the sequence `TAGCCTAGGTCATGCGGGCCTGTATAGTGTCGGC` ?
0.135

Then what about the sequence `TCAAGTTGGTCACGGAGGTCACACACGACGGGTA` ?
2.38
